Field: Herbicidal Activity Digitaria sanguinalis. Provide a value for each of the compounds that follow.
Test system: Digitaria sanguinalis
Assay: Herbicidal activity test for indoor pre-emergence soil treatment
Type: in vivo
Design: key: 1-9 levels; higher = more weed remaining vs blank control
Settings: 150 g a.i./ha, visual inspection 21 days after treatment
Please give the numeric answer without any surrounding text.

// output Herbicidal Activity Digitaria sanguinalis; input Cc1cccc(C(=O)NCc2cc(F)cc(Cl)c2)n1 [Compound B27] ; system Digitaria sanguinalis
1

// output Herbicidal Activity Digitaria sanguinalis; input COc1ccccc1C(=O)NCc1cccc(F)c1 [Compound A01] ; system Digitaria sanguinalis
1

// output Herbicidal Activity Digitaria sanguinalis; input COc1ccc(OC)c(C(=O)NCc2ccc(F)cc2)c1 [Compound A23] ; system Digitaria sanguinalis
1
